Tested on: Blumeria graminis f. sp. tritici
Procedure summary: Test F: preventive spray on wheat seedlings, visual disease rating (wheat powdery mildew)
Format: in vivo
Study conditions: no asterisk: standard test suspension, not 40 ppm
Please note: yes applies when Test F rating (% disease control) is 90% or greater, and no applies otherwise.

Please review the entries below; each comes with its answer.
Cc1nn(C)c(-c2c(F)cccc2F)c1[S+]([O-])c1ccc(Cl)cc1 (stereo not drawn) [compound 63] ... no
Cc1nn(C)c(-c2c(F)cccc2Cl)c1C(O)c1ccc(C#N)cc1F (stereo not drawn) [compound 38] ... yes
Cc1nn(C)c(-c2ccc(F)cc2Cl)c1C(O)c1ccc(F)cc1Cl (stereo not drawn) [compound 18] ... yes
Cc1nn(C)c(-c2ccc(F)cc2Cl)c1C(O)c1ccc(F)cc1I (stereo not drawn) [compound 99] ... yes
Cc1nn(C)c(-c2c(F)cccc2F)c1C(SC#N)c1ccc(F)cc1Cl (stereo not drawn) [Compound 111] ... yes

For the next question, use this molecule.
Task: # check: Test F rating (% disease control) of Cn1nc(Cl)c(C(O)c2ccc(F)cc2Br)c1-c1c(F)cccc1Cl (stereo not drawn) [compound 134] is greater than or equal to 90%
Result: yes
